- Tested On: Human IDO1 (Homo sapiens (Human))
- Assay Overview: IDO Kynurenine Assay with Human IDO1/HEK293 Cells
- Measurement Conditions: HEK293 cells with human IDO1; read-out: HEK human IDO-1 (IC50)
What pIC50 was measured for each of the following?
One number for each entry, as −log10 of the molar value.

Worked examples, 5 molecules total:
Molecule: Cc1ccccc1NC(=O)Nc1cc(-c2cc(F)cc(C(=O)O)c2)ccc1Oc1ccccc1C(C)(C)C [Example 254]
Tested On: Human IDO1 (Homo sapiens (Human))
pIC50: 5.79

Molecule: O=C(Nc1ccc(OC(F)(F)F)cc1)Nc1cc(-c2ccccc2-c2nnn[nH]2)cc(CC2CC2)c1OCC1CC1 [Example 321]
Tested On: Human IDO1 (Homo sapiens (Human))
pIC50: 7.52

Molecule: COc1ccc(-c2ccc(Oc3cccc(C)c3C)c(NC(=O)Nc3cccc(C)c3)c2)cc1C(=O)O [Example 122]
Tested On: Human IDO1 (Homo sapiens (Human))
pIC50: 6.18

Molecule: CCCOc1c(NC(=O)Nc2ccc(C)cc2)cc(-c2ccccc2-c2nnn[nH]2)cc1C(CC)CCCc1ccccc1 (centres unmarked) [compound 297]
Tested On: Human IDO1 (Homo sapiens (Human))
pIC50: 7.05

Molecule: Cc1ccccc1NC(=O)Nc1cc(-c2cccc(C(=O)O)c2)ccc1Oc1ccccc1C(C)(C)C [Example 224]
Tested On: Human IDO1 (Homo sapiens (Human))
pIC50: 5.12

List pIC50 for every entry below, keeping the order given.
1. Cc1ccc(NC(=O)Nc2cc(-c3cncc(C(=O)O)c3)cnc2Oc2ccccc2)cc1 [Example 339]
2. Cc1ccc(NC(=O)Nc2cc(-c3ccc(Cl)c(C(=O)O)c3)ccc2Oc2ccccc2C(C)(C)C)cc1 [Example 1]
3. CCCOc1c(/C=C/CC(F)(F)F)cc(-c2ccccc2-c2nnn[nH]2)cc1NC(=O)Nc1ccc(C)cc1 [Example 29]

stdout:
5.21
5.21
7.52

----------
- Tested On: Human IDO1 (Homo sapiens (Human), UniProt P14902)
- Sequence (P14902 whole entry): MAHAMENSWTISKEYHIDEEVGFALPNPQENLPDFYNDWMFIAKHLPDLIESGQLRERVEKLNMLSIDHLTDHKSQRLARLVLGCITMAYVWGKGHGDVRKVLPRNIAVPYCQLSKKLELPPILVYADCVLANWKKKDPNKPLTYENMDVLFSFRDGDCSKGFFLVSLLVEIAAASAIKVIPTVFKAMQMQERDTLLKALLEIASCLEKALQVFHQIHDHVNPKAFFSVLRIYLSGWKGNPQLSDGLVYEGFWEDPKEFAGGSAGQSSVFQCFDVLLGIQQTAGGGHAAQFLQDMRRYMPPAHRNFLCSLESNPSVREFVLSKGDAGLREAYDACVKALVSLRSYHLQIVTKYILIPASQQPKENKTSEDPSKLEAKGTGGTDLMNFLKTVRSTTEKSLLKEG
- Assay Overview: IDO Kynurenine Assay with Human IDO1/HEK293 Cells
- Measurement Conditions: HEK293 cells with human IDO1; read-out: HEK human IDO-1 (IC50)
Attribute Measured: pIC50
Numbers only, as −log10 of the molar value.

Molecule: CCCOc1c(CCCc2ccccc2)cc(-c2ccccc2C(=O)O)cc1NC(=O)Nc1ccc(C)cc1 [Example 36]
pIC50: 7.70

Molecule: COc1ccc(-c2ccc(Oc3cccc4c3CCC4)c(NC(=O)Nc3ccccc3C)c2)cc1C(=O)O [Example 143]
pIC50: 6.28

Molecule: CC(C)(C)c1ccccc1Oc1ccc(-c2cccc(C(=O)O)c2)cc1NC(=O)Nc1ccc(Br)cc1 [Example 233]
pIC50: 5.12

Continue with the molecule presented below.
stdin: Any idea what pIC50 was measured for COc1ccc(-c2ccc(Oc3cccc(C(C)(C)C)c3)c(NC(=O)Nc3ccc(C)cc3)c2)cc1C(=O)O [Example 113] ?
stdout: 5.78

----------
- Tested On: IDO (Homo sapiens (Human), UniProt P14902)
- Sequence (P14902 whole entry): as above
- Assay Overview: LLE_IDO_ABS_DR (IDO assay, method not described)
With a cut-off of 500 nM, any IC50 strictly below it is called Y; any IC50 meeting it or above is called N.

stdin: Please indicate whether the reported IC50 of COc1ccc(-c2ccc(Oc3ccc4c(c3)CCCC4)c(NC(=O)Nc3cccc(C)c3)c2)cc1C(=O)O [Example 147] is strictly below 500 nM.
stdout: N

stdin: Could you do the same for O=C(Nc1ccc(Cl)cc1)Nc1cc(-c2ccccc2-c2nnn[nH]2)cc(CC2CC2)c1OCCC(F)(F)F [Example 314] , please?
stdout: N

stdin: Could you do the same for Cc1ccc(NC(=O)Nc2cc(-c3ccccc3C(=O)O)cc(C/C=C/C(F)(F)F)c2OCCC(F)(F)F)cc1 [Example 303] , please?
stdout: Y

stdin: Could you do the same for COc1ccc(-c2ccc(Oc3ccccc3C(C)(C)C)c(NC(=O)Nc3ccc(C)cc3)c2)cc1NS(=O)(=O)C(F)(F)F [Example 7] , please?
stdout: Y

stdin: Could you do the same for COc1ccc(-c2ccc(Oc3ccccc3C(C)C)c(NC(=O)Nc3ccccc3C)c2)cc1C(=O)O [Example 64] , please?
stdout: N

stdin: Could you do the same for COc1ccc(-c2ccc(Oc3ccccc3C)c(NC(=O)Nc3ccc(C)cc3)c2)cc1C(=O)O [Example 73] , please?
stdout: N

----------
- Tested On: IDO (Homo sapiens (Human), UniProt P14902)
- Assay Overview: Kynurenine assay in IFN-γ-stimulated Hela cells
- Format: cell-based
- Measurement Conditions: 20 h, read-out: Hela Kyurenine (IC50)
What log10 of IC50 was measured for each of the following?
Values are log10 of IC50 in nM.

List log10 of IC50 for every entry below, keeping the order given.
1. COc1ccc(-c2ccc(Oc3cccc4c3CCCC4)c(NC(=O)Nc3ccccc3F)c2)cc1C(=O)O
2. Cc1ccc(NC(=O)Nc2cc(-c3ccc(C(=O)O)nc3)ccc2Oc2ccccc2C(C)(C)C)cc1

stdout:
[1.70, 2.95]

List log10 of IC50 for every entry below, keeping the order given.
1. CC(C)(C)c1ccccc1Oc1ccc(-c2ccccc2-c2nnn[nH]2)cc1NC(=O)Nc1ccccc1C(F)(F)F
2. COc1ccc(-c2ccc(Oc3cccc4c3CCC4)c(NC(=O)Nc3ccc(C)cc3)c2)cc1C(=O)O
3. COc1ccc(-c2ccc(Oc3cccc4c3CCCC4)c(NC(=O)Nc3ccc(C)c(C)c3)c2)cc1C(=O)O
4. COc1ccc(-c2ccc(Oc3c(C)cccc3C(C)(C)C)c(NC(=O)Nc3cccc(C)c3)c2)cc1C(=O)O
5. CC(C)(C)c1ccccc1Oc1ccc(-c2cccc(C(=O)O)c2)cc1NC(=O)Nc1ccc(OC(F)F)cc1

stdout:
2.84
2.45
1.60
2.49
3.42

----------
- Tested On: IDO (Homo sapiens (Human), UniProt P14902)
- Assay Overview: LLE_IDO_ABS_DR (IDO assay, method not described)
What IC50 was measured for each of the following?
Please answer using the number first and the unit second.

Compound: Cc1ccccc1NC(=O)Nc1cc(-c2cc(Cl)cc(C(=O)O)c2)ccc1Oc1ccccc1C(C)(C)C
Tested On: IDO (Homo sapiens (Human), UniProt P14902)
Attribute Measured: IC50
Result: 10000 nM
--
Compound: Cc1ccc(NC(=O)Nc2cc(-c3ccc(F)cc3C(=O)O)ccc2Oc2ccccc2C(C)(C)C)cc1
Tested On: IDO (Homo sapiens (Human), UniProt P14902)
Attribute Measured: IC50
Result: 2230 nM
--
Compound: CCCCc1cc(-c2cc(F)ccc2C(=O)O)cc(NC(=O)Nc2ccc(C)cc2)c1OCCC
Tested On: IDO (Homo sapiens (Human), UniProt P14902)
Attribute Measured: IC50
Result: 80 nM
--
Compound: CCC(Oc1ccc(-c2ccccc2-c2nnn[nH]2)cc1NC(=O)Nc1ccc(C)cc1)c1ccccc1 (centres unmarked)
Tested On: IDO (Homo sapiens (Human), UniProt P14902)
Attribute Measured: IC50
Result: 30 nM
--
Compound: O=C(Nc1ccc(OC(F)(F)F)cc1)Nc1cc(-c2ccccc2-c2nnn[nH]2)cc(CC2CC2)c1OCC1CC1
Tested On: IDO (Homo sapiens (Human), UniProt P14902)
Attribute Measured: IC50
Result: 10 nM

List IC50 for every entry below, keeping the order given.
1. Cc1ccc(NC(=O)Nc2cc(-c3ccc(F)cc3-c3nnn[nH]3)ccc2Oc2ccccc2C(C)(C)C)cc1
2. O=C(Nc1ccc(C2CC2)cc1)Nc1cc(-c2ccccc2-c2nnn[nH]2)cc(CC2CC2)c1OC1CCOCC1
3. Cc1cccc(NC(=O)Nc2cc(-c3ccccc3C(=O)O)ccc2Oc2ccccc2C(C)(C)C)c1
4. COc1ccc(-c2ccc(Oc3ccccc3C(C)(C)C)c(NC(=O)Nc3ccccc3Cl)c2)c(-c2nnn[nH]2)c1
5. Cc1ccc(NC(=O)Nc2cc(-c3cc(Cl)ccc3C(=O)O)ccc2Oc2ccccc2C(C)(C)C)cc1

stdout:
1: 200 nM; 2: 130 nM; 3: 3680 nM; 4: 1440 nM; 5: 660 nM

List IC50 for every entry below, keeping the order given.
1. C=CC(c1ccccc1)c1cc(-c2ccccc2-c2nnn[nH]2)cc(NC(=O)Nc2ccc(C)cc2)c1OCC(C)C (centres unmarked)
2. Cc1ccc(NC(=O)Nc2cc(-c3ccccc3-c3nnn[nH]3)ccc2Oc2cccc3c2CCCC3)cc1
3. COc1ccc(-c2ccc(Oc3cccc4c3CCC4)c(NC(=O)Nc3ccc(C)cc3)c2)cc1C(=O)O

stdout:
100 nM
680 nM
790 nM

----------
- Tested On: IDO (Homo sapiens (Human), UniProt P14902)
- Assay Overview: Kynurenine assay in IFN-γ-stimulated Hela cells
- Format: cell-based
- Measurement Conditions: 20 h, read-out: Hela Kyurenine (IC50)
Attribute Measured: pIC50
Answers are plain numbers, as −log10 of the molar value.

Worked examples, 7 compounds total:
Compound: COc1ccc(-c2ccc(Oc3cccc4c3CCCC4)c(NC(=O)Nc3ccc(F)cc3F)c2)cc1C(=O)O [Example 154]
pIC50: 6.85

Compound: COc1cc(-c2ccc(Oc3ccccc3C(C)(C)C)c(NC(=O)Nc3ccc(C)cc3)c2)ccc1C(=O)O [Example 258]
pIC50: 5.65

Compound: Cc1ccc(NC(=O)Nc2cc(-c3cccc(C(=O)O)c3)ccc2Oc2c(Cl)cccc2Cl)cc1 [Example 247]
pIC50: 5.87

Compound: COc1ccc(-c2ccc(Oc3ccccc3C(C)(C)C)c(NC(=O)Nc3c(F)cccc3F)c2)cc1C(=O)O [Example 80]
pIC50: 6.89

Compound: COc1ccc(-c2ccc(Oc3cccc4c3CCC4)c(NC(=O)Nc3cccc(C)c3)c2)cc1C(=O)O [Example 144]
pIC50: 6.82

Compound: COc1cc(C(=O)O)c(-c2ccc(Oc3ccccc3C(C)(C)C)c(NC(=O)Nc3ccc(C)cc3)c2)cc1OC [Example 165]
pIC50: 6.41

Compound: COc1ccc(-c2ccc(Oc3cccc4c3OC(C)(C)C4)c(NC(=O)Nc3ccccc3C)c2)cc1C(=O)O [Example 139]
pIC50: 6.17

Continue with the compound presented below.
stdin: Any idea what pIC50 was measured for CCc1ccccc1Oc1ccc(-c2ccc(OC)c(C(=O)O)c2)cc1NC(=O)Nc1ccc(C)cc1 [Example 47] ?
stdout: 6.27
